- Assay comment: Oral toxicity test (general symptoms, weight change, lethal case)
- Assay type: in vivo, rats (SD)
- Assay context: oral, 1,000 mg/kg, suspended in propylene glycol, SD rats
Parameter: weight change

Please review the entries below; each comes with its answer.
CCCCCCCCCCCC1=[N+](Cc2ccccc2F)CCc2cc(OC)c(OC)cc21.[Cl-] = normal
CCCCCCCCOc1c(C[N+]2=C(CCc3ccc(C(C)(C)C)cc3)c3cc(OC)c(OC)cc3CC2)cccc1OC = normal
CCCCCCCCOc1c(C[n+]2ccc3cc(OC)c(OC)cc3c2CCc2ccc(C(C)(C)C)cc2)cccc1OC = normal
CCCCCCCCCCCC1=[N+](Cc2ccc(C(C)(C)C)cc2)CCc2cc(NC)c(OC)cc21 = normal

Then there is this compound:
Tell me the measured weight change of COc1cc2cc[n+](Cc3cccc(OC)c3OCc3c(F)cccc3Cl)c(CCc3ccc(C(C)(C)C)cc3)c2cc1OC , please.
normal

----------
Kindly note that classification relies on melting point with these boundaries: class 1 = under 90 °C, class 2 = from 90 °C up to 100 °C, class 3 = 100 °C and over

Please report the category associated with CCCCCCC1=[N+](Cc2ccc(C(C)(C)C)cc2)CCc2cc(OC)c(OC)cc21.[Cl-] [Compound No. 126] , nothing else.
class 1

Please report the category associated with COc1cc2cc[n+](Cc3c(F)cccc3Cl)c(C)c2cc1OC.[Cl-] [Compound No. 140] , nothing else.
class 2

Please report the category associated with CCCCCCCCCCCC1=[N+](Cc2ccc(C(C)(C)C)cc2)CCc2cc(OC)c(OC)cc21.[Cl-] [Compound No. 127] , nothing else.
class 1

Please report the category associated with CCCc1c2cc(OC)c(OC)cc2cc[n+]1Cc1ccc(C(C)(C)C)cc1.[Cl-] [Compound No. 144] , nothing else.
class 1

Please report the category associated with CCCc1c2cc(OC)c(OC)cc2cc[n+]1Cc1c(F)cccc1Cl.[Cl-] [Compound No. 139] , nothing else.
class 1

Please report the category associated with COc1cc2c(cc1OC)C(c1ccccc1F)=[N+](Cc1c(F)cccc1F)CC2.[Cl-] [Compound No. 62] , nothing else.
class 1

Please report the category associated with COc1cc2cc[n+](Cc3ccc(C(C)(C)C)cc3)c(C)c2cc1OC.[Cl-] [Compound No. 143] , nothing else.
class 3

Please report the category associated with CCCCCCc1c2cc(OC)c(OC)cc2cc[n+]1Cc1ccc(C(C)(C)C)cc1.[Cl-] [Compound No. 145] , nothing else.
class 3

Please report the category associated with CC(C)C1=[N+](Cc2ccccc2F)CCc2cc3c(cc21)OCO3.[Cl-] , nothing else.
class 3

Please report the category associated with CCCCCCCC1=[N+](Cc2ccccc2F)CCc2cc3c(cc21)OCO3.[Cl-] , nothing else.
class 2

Please report the category associated with CCCCCCCCCCCCCCCC1=[N+](Cc2ccc(C(C)(C)C)cc2)CCc2cc(OC)c(OC)cc21.[Cl-] [Compound No. 128] , nothing else.
class 3

Please report the category associated with COc1cc2c(cc1OC)C(c1cc(F)cc(F)c1)=[N+](Cc1ccccc1F)CC2.[Cl-] [Compound No. 18] , nothing else.
class 3

----------
- Assayed system: sterol-24-methyl transferase (Candida albicans, UniProt O74198)
- Sequence (O74198 whole entry): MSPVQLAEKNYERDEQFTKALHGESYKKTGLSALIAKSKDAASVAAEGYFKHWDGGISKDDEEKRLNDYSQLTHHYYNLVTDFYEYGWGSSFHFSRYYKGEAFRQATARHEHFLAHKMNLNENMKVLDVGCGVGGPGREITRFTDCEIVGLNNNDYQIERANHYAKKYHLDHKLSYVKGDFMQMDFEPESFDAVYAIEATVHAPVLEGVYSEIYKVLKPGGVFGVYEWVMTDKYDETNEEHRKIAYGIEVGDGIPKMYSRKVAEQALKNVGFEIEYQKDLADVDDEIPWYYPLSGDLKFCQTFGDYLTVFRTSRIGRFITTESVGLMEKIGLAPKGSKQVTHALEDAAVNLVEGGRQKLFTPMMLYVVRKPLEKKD
pIC50: −log10 of the molar value.
So I've got a bunch of molecules here, and I need their pIC50 values.

Please review the entries below; each comes with its answer.
COc1cc2cc[n+](Cc3cccc(OC)c3OCc3c(F)c(F)c(C(F)(F)F)c(F)c3F)c(CCc3ccc(C(C)(C)C)cc3)c2cc1OC.[Cl-] = > 5.30
CCCCCCCCCCCC1=[N+](Cc2ccc(NC(=O)OC(C)(C)C)cc2)CCc2cc(OC)c(OC)cc21.[Cl-] = > 5.30
CCCCCCCCCCCC1=[N+](Cc2ccc(C(C)(C)C)cc2)CCc2cc3c(cc21)oc(=O)n3C.[Br-] = 4.30 to 5.30
CCCCCCCCCCCC1=[N+](Cc2ccc(N)cc2)CCc2cc(OC)c(OC)cc21.Cl.[Cl-] = 4.30 to 5.30

Then there is this molecule:
Tell me the measured pIC50 of CCCCCCCCCCCC1=[N+](c2ccc(C(C)(C)C)cc2)CCc2cc(CNC(=O)OCC)ccc21.[Br-] , please.
4.30 to 5.30

Data origin, for the record: patent US20090221829A1
